method.summary: Single-dose pharmacokinetics in male Wistar rats
Type: in vivo
measurement.parameters: rat, plasma, iv, 1 mg kg^–1 i.v.
Method: To characterize the pharmacokinetic behavior of RNB-61, studies in rodents were conducted at the in vivo facility of F. Hoffmann-La Roche Ltd. (Basel, Switzerland). The plasma-concentration time profile was studied in rodents after single-dose RNB-61 administration by oral gavage (p.o. microsuspension excipients 7.5% gelatin/0.62% NaCl) and intravenous bolus injection (i.v. solution, excipients NMP:NaCl (30:70)). […] The samples were analyzed for RNB-61 concentration by LC/MS-MS. […]
result.type: clearance (mL/min/kg)
State the answer as a number, implicitly in mL/min/kg.

(Q) clearance for Cn1c(C(C)(C)C)cc(=NC(=O)c2cc(C(F)(F)F)ccc2OCC(C)(C)O)n1CC1CCC1 ?
(A) 3.5
